Target: T1, ZFP SBS#1223 (synthetic)
T1 chain: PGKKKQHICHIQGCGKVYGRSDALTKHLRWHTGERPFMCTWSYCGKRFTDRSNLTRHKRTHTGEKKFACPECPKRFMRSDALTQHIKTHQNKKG
Assay: EMSA
Details: tags: MBP fusion
parameterMeasured: Kd (nM)
One number for each entry, in nM.

So what does the record say about Kd for ATGGACTTG (dsDNA) DNA 1: ATGGACTTG DNA 2: CAAGTCCAT ?
7

This collection of values is drawn from patent US20030068675.
